Listing of entries alongside the reported IC50.
Test system: LNCaP ARE-Luc
Assay: Luciferase assay in LNCaP cell lysates (LNCaP ARE-Luc)
Assay type: cell-based
Conditions: Homo sapiens, Firefly Luciferase Assay System, read-out: LNCaP ARE-Luc % inhibition IC50 Ranges

COMPOUND	MEASURED_RESULT
CC(C)(c1ccc(OCC(=O)CNS(C)(=O)=O)cc1)c1ccc(OCCCCl)c(Cl)c1	< 0.1 µM

Shifting focus to the compound that follows.
The reported LNCaP ARE-Luc IC50 of CC(C)(c1ccc(OCC(=O)NCCNS(C)(=O)=O)cc1)c1cc(Cl)c(OCCCCl)c(Cl)c1 is ≥ 0.25 µM

----------
System: LNCaP ARE-Luc
Assay: Luciferase assay in LNCaP cell lysates (LNCaP ARE-Luc)
Format: cell-based
Conditions: Homo sapiens, Firefly Luciferase Assay System, read-out: LNCaP ARE-Luc % inhibition IC50 Ranges
Description: Lysates were thawed on ice then collected into V-bottom 96-well tissue culture plates. Lysates were centrifuged at 4° C. for 5 minutes at 4000 rpm. To measure luminescence of LNCaP cell lysates the Firefly Luciferase Assay System (Promega) was employed, according to manufacturer's protocol. Relative luminescence units (RLU) in cell lysates were detected for 10 seconds using Promega GoMax-Multi Detection Luminometer (Promega). […]
MEASURED_ENDPOINT: IC50

The reported LNCaP ARE-Luc IC50 of CC(C)(c1ccc(OCC(=O)CNS(C)(=O)=O)cc1)c1cc(Cl)c(OCc2cccc(Cl)c2)c(Cl)c1 is ≥ 250 nM

The reported LNCaP ARE-Luc IC50 of CC(C)(c1ccc(OCC(=O)NNS(C)(=O)=O)cc1)c1cc(Cl)c(OCCCCl)c(Cl)c1 is ≥ 250 nM

----------
Assay: Microsomal stability assay, HLM
Type: in vitro ADME
Details: human, pH 7.4, 1 μM test compound, 0.5 mg/mL liver microsomes protein, 37° C., 0-60 min, read-out: HLM +/− NADPH: Clint (μL/min/mg protein)
MEASURED_ENDPOINT: microsomal CLint at 1 μM

Study these solved cases before continuing.
COMPOUND	MEASURED_ENDPOINT	MEASURED_RESULT
CS(=O)(=O)NCC(=O)COc1ccccc1Cc1cc(Cl)c(OCCCCl)c(Cl)c1	microsomal CLint at 1 μM	≥ 48 µL/min/mg
CC(C)(c1ccc(OCC(=O)CNS(C)(=O)=O)cc1)c1cc(Cl)c(OCCCCl)c(Cl)c1	microsomal CLint at 1 μM	≥ 48 µL/min/mg
CC(=O)C(=O)Nc1ccc(C(C)(C)c2cc(Cl)c(OCCCCl)c(Cl)c2)cc1	microsomal CLint at 1 μM	≥ 48 µL/min/mg
CC(C)(c1ccc(OCC(=O)CNS(C)(=O)=O)cc1)c1cc(Cl)c(NCCCCl)c(Cl)c1	microsomal CLint at 1 μM	≥ 48 µL/min/mg
CN(c1ccc(OCC(=O)CNS(C)(=O)=O)cc1)c1cc(Cl)c(OCCCCl)c(Cl)c1	microsomal CLint at 1 μM	≥ 48 µL/min/mg

Shifting focus to the compound that follows.
// field: microsomal CLint at 1 μM; key: COCC(=O)COc1ccc(C(F)(F)c2cc(Cl)c(OCC(O)CCl)c(Cl)c2)cc1 (stereo not drawn) ; value = ≥ 48 µL/min/mg

----------
System: LNCaP ARE-Luc
Experiment: Luciferase assay in LNCaP cell lysates (LNCaP ARE-Luc)
Type: cell-based
Settings: Homo sapiens, Firefly Luciferase Assay System, read-out: LNCaP ARE-Luc % inhibition IC50 Ranges
MEASURED_ENDPOINT: IC50

Study these solved cases before continuing.
COMPOUND	TESTED_ON	IC50
CC(C)(c1ccc(NCC(=O)CNS(C)(=O)=O)cc1)c1cc(Cl)c(OCCCCl)c(Cl)c1 [Compound A27]	LNCaP ARE-Luc	≥ 250 nM
CS(=O)(=O)NCC(=O)COc1ccc(C2(c3cc(Cl)c(OCCCCl)c(Cl)c3)COC2)cc1 [Compound A43]	LNCaP ARE-Luc	< 100 nM
CC(C)(c1ccc(OCC(=O)CNS(C)(=O)=O)cc1)c1cc(Cl)c(OCCCCl)c(Cl)c1 [Compound A31]	LNCaP ARE-Luc	< 100 nM

The reported LNCaP ARE-Luc IC50 of CC(C)(c1ccc(OCC(=O)CNS(C)(=O)=O)cc1)c1cc(Cl)c(OCCCBr)c(Cl)c1 [Compound A61] is 100 to 250 nM

The reported LNCaP ARE-Luc IC50 of COCC(=O)C(F)(F)Oc1ccc(C(C)(C)c2cc(Cl)c(OCCCCl)c(Cl)c2)cc1 [Compound A100] is ≥ 250 nM

The reported LNCaP ARE-Luc IC50 of CC(C)(c1ccc(C(=O)CCCNS(C)(=O)=O)cc1)c1cc(Cl)c(OCCCCl)c(Cl)c1 [Compound A84] is ≥ 250 nM

----------
Listing of entries alongside the reported pIC50.
System: LNCaP ARE-Luc
Assay: Luciferase assay in LNCaP cell lysates (LNCaP ARE-Luc)
Type: cell-based
Details: Homo sapiens, Firefly Luciferase Assay System, read-out: LNCaP ARE-Luc % inhibition IC50 Ranges
pIC50: −log10 of the molar value.

Study these solved cases before continuing.
MOLECULE	pIC50
CC(=O)C(=O)Nc1ccc(C(C)(C)c2cc(Cl)c(OCC(C)(O)CCl)c(Cl)c2)cc1 (stereo not drawn)	≤ 6.60
CN(C)C(=O)NCc1ccc(C(C)(C)c2cc(Cl)c(OCCCCl)c(Cl)c2)cc1	≤ 6.60
CN(CCCCl)c1c(Cl)cc(C(C)(C)c2ccc(OCC(=O)CNS(C)(=O)=O)cc2)cc1Cl	6.60 to 7.00
CC(C)(c1ccc(OC(F)(F)C(=O)CS(C)(=O)=O)cc1)c1cc(Cl)c(OCCCCl)c(Cl)c1	≤ 6.60

// field: pIC50; key: CC(C)(c1ccc(CNC(=O)CNS(C)(=O)=O)cc1)c1cc(Cl)c(OCCCCl)c(Cl)c1 ; value = ≤ 6.60

// field: pIC50; key: CC(CCl)COc1c(Cl)cc(C(C)(C)c2ccc(OCC(=O)CNS(C)(=O)=O)cc2)cc1Cl (stereo not drawn) ; value = > 7.00

// field: pIC50; key: CC(C)(c1ccc(OCC(=O)CNS(C)(=O)=O)cc1)c1cc(Cl)c(OCCCl)c(Cl)c1 ; value = > 7.00

// field: pIC50; key: CC(C)(c1ccc(NC(=O)C(=O)C(F)(F)F)cc1)c1cc(Cl)c(OCCCCl)c(Cl)c1 ; value = ≤ 6.60

// field: pIC50; key: CC(C)(c1ccc(NC(=O)CCNS(C)(=O)=O)cc1)c1cc(Cl)c(OCCCCl)c(Cl)c1 ; value = ≤ 6.60

----------
Tested on: LNCaP ARE-Luc
Assay: Luciferase assay in LNCaP cell lysates (LNCaP ARE-Luc)
Format: cell-based
Details: Homo sapiens, Firefly Luciferase Assay System, read-out: LNCaP ARE-Luc % inhibition IC50 Ranges
MEASURED_ENDPOINT: IC50

Study these solved cases before continuing.
COMPOUND	IC50
CS(=O)(=O)NCC(=O)COc1ccc(CCc2cc(Cl)c(OCC(O)CCl)c(Cl)c2)cc1 (centres unmarked)	100 to 250 nM
CC(=O)COc1ccc(C(C)(C)c2cc(Cl)c(OCCCCl)c(Cl)c2)cc1	≥ 250 nM
CC(C)(Oc1ccc(C(C)(C)c2cc(Cl)c(OCCCCl)c(Cl)c2)cc1)C(=O)CNS(C)(=O)=O	< 100 nM
CC(C)(c1ccc(OCC(N)=O)cc1)c1cc(Cl)c(OCCCCl)c(Cl)c1	≥ 250 nM
CS(=O)(=O)NCC(=O)COc1cccc(Cc2ccc(Cl)c(OCCCCl)c2Cl)c1	≥ 250 nM
CC(C)(c1ccc(OCC(=O)CNS(C)(=O)=O)cc1)c1ccc(OCCCCl)c(C#N)c1	< 100 nM

// field: IC50; key: CC(O)(CCl)COc1c(Cl)cc(C(C)(C)c2ccc(NC(=O)C(=O)C(F)(F)F)cc2)cc1Cl (centres unmarked) ; value = ≥ 250 nM

// field: IC50; key: COc1cc(OCCCCl)ccc1C(C)(C)c1ccc(OCC(=O)CNS(C)(=O)=O)cc1 ; value = ≥ 250 nM
